Documented MIC across a set of molecules
System: Streptococcus pneumoniae
assay_method_text: Antimicrobial activity against telithromycin-resistant Streptococcus pneumoniae isolate P1501016 by agar dilution method
Assay type: functional
The response must be a number in µg/mL with no trailing unit.

Please list MIC recorded for the molecule CC[C@H]1OC(=O)[C@H](C)C(=O)[C@H](C)[C@@H](O[C@@H]2O[C@H](C)C[C@H](N(C)C)[C@H]2O)[C@](C)(OC)C[C@@H](C)C(=O)[C@H](C)[C@H]2N(CCCCn3cnc(-c4cccnc4)c3)C(=O)O[C@]12C
8

Moving on to the next molecule.
Please list MIC recorded for the molecule CN(C)[C@@H]1C(O)=C(C(N)=O)C(=O)[C@@]2(O)C(O)=C3C(=O)c4c(O)cccc4[C@@](C)(O)[C@H]3C[C@@H]12
4

---

Documented MIC across a set of compounds
Test system: Streptococcus pneumoniae
assay_method_text: Antimicrobial activity against wild-type Streptococcus pneumoniae PC13 by agar dilution method
Type: functional

Look over these answered cases.
Please list MIC recorded for the compound CC[C@H]1OC(=O)[C@H](C)[C@@H](O[C@H]2C[C@@](C)(OC)[C@@H](O)[C@H](C)O2)[C@H](C)[C@@H](O[C@@H]2O[C@H](C)C[C@H](N(C)C)[C@H]2O)[C@](C)(O)C[C@@H](C)C(=O)[C@H](C)[C@@H](O)[C@]1(C)O
> 256 µg/mL

Please list MIC recorded for the compound CC[C@H]1OC(=O)[C@H](C)[C@@H](O[C@H]2C[C@@](C)(OC)[C@@H](O)[C@H](C)O2)[C@H](C)[C@@H](O[C@@H]2O[C@H](C)C[C@H](N(C)C)[C@H]2O)[C@](C)(OC)C[C@@H](C)C(=O)[C@H](C)[C@@H](O)[C@]1(C)O
> 256 µg/mL

---
Please list MIC recorded for the compound CCC[C@@H]1C[C@@H](C(=O)N[C@@H]([C@H]2O[C@H](SC)[C@H](O)[C@@H](O)[C@H]2O)[C@H](C)Cl)N(C)C1
> 256 µg/mL

---

Documented MIC across a set of compounds
System: Streptococcus pneumoniae
assay_method_text: Antimicrobial activity against telithromycin-resistant Streptococcus pneumoniae isolate P1501016 by agar dilution method
Type: functional

Look over these answered cases.
Please list MIC recorded for the compound CCC[C@@H]1C[C@@H](C(=O)N[C@@H]([C@H]2O[C@H](SC)[C@H](O)[C@@H](O)[C@H]2O)[C@H](C)Cl)N(C)C1
> 256 µg/mL

Please list MIC recorded for the compound CC[C@H]1OC(=O)[C@H](C)[C@@H](O[C@H]2C[C@@](C)(OC)[C@@H](O)[C@H](C)O2)[C@H](C)[C@@H](O[C@@H]2O[C@H](C)C[C@H](N(C)C)[C@H]2O)[C@](C)(OC)C[C@@H](C)C(=O)[C@H](C)[C@@H](O)[C@]1(C)O
> 256 µg/mL

Moving on to the next compound.
Please list MIC recorded for the compound CC[C@H]1OC(=O)[C@H](C)[C@@H](O[C@H]2C[C@@](C)(OC)[C@@H](O)[C@H](C)O2)[C@H](C)[C@@H](O[C@@H]2O[C@H](C)C[C@H](N(C)C)[C@H]2O)[C@](C)(O)C[C@@H](C)C(=O)[C@H](C)[C@@H](O)[C@]1(C)O
> 256 µg/mL
